The reported measurements were obtained from PubChem BioAssay (NCI).

Tested on: SK-MEL-2 melanoma
Assay: NCI tumour cell line growth inhibition, 48 h
Parameter: TGI

{"Molecule": "CN(CCCCN1CCCC1)CCCN(C)C(=O)Cc1ccc(Cl)c(Cl)c1", "TGI": "22.5 µM"}

# lookup: CC(C)(O)CS(=O)(=O)Nc1ccc2c(c1)CCN(C(=O)COc1cccnc1)C2 on SK-MEL-2 melanoma, TGI = > 100 µM

# lookup: CCCCCC/C=C1\CCC(CN2CCCC2)C1=O (stereo unspecified) on SK-MEL-2 melanoma, TGI = 30.5 µM

# lookup: NC(N)=N/N=C\c1cccc(OCc2ccccc2)c1 on SK-MEL-2 melanoma, TGI = 13 µM

# lookup: Nc1c2c(=O)[nH]c(=O)c2c(N)c2c(=O)c3ccccc3c(=O)c12 on SK-MEL-2 melanoma, TGI = 6.2 µM

# lookup: NC(=O)C(N)=O on SK-MEL-2 melanoma, TGI = > 100 µM

# lookup: O=C(Nc1cccc(Cl)c1)c1ccc(NC2=C(Cl)C(=O)N(Cc3ccccc3)C2=O)cc1 on SK-MEL-2 melanoma, TGI = > 100 µM

# lookup: O=C1c2ccccc2C(=O)[C@@]23O[C@@]12C1(Oc2cccc4cccc(c24)O1)[C@@H]1O[C@@H]1[C@@H]3O on SK-MEL-2 melanoma, TGI = 42.1 µM

# lookup: CC(C)(C)c1cc(-c2cc(C(C)(C)C)n(-c3ccccc3)n2)nn1-c1ccccc1 on SK-MEL-2 melanoma, TGI = > 100 µM

# lookup: COc1ccc(/C=C/C(=O)/C=C/c2ccc(OC)cc2)cc1 on SK-MEL-2 melanoma, TGI = > 100 µM

# lookup: O=C1C(N2CCNCC2)=C(Cl)C(=O)c2ncccc21 on SK-MEL-2 melanoma, TGI = > 10 µM
